Measured % inhibition of farnesyltransferase at 1 × 10^-7 M values are reported for all entries that follow.
Molecular target: protein farnesyltransferase (Rattus norvegicus, UniProt Q02293+Q04631)
Construct: The enzyme is purified according to Reiss, Y., et al., Cell, 62: 81-88 (1990), utilizing steps one through three; from tissue; host or cells: rat brain
Sequence (Q02293 whole entry, one chain of several): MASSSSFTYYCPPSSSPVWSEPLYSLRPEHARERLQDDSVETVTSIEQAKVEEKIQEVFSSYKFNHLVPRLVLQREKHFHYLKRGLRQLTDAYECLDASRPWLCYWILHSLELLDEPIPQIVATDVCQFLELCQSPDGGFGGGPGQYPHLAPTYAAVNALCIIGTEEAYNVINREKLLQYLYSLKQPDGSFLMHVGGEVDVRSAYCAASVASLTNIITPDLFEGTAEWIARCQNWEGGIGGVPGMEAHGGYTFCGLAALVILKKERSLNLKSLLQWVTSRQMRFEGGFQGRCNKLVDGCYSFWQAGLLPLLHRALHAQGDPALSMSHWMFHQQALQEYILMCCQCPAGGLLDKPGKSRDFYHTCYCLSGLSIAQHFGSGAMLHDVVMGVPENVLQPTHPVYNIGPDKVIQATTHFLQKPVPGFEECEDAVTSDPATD
Assay: Inhibition of farnesyltransferase (scintillation proximity assay, rat brain enzyme, biotin-K Ras B fragment substrate)
Assay type: biochemical
Conditions: 1 × 10^-7 M (Table 3)
experimental readout: % inhibition of farnesyltransferase at 1 × 10^-7 M

{"compound": "COc1ccccc1COCc1ccc(C(=O)N[C@@H](CCSC)C(=O)[O-])c(-c2ccccc2C)c1.[Li+] [Example 931]", "result value": "98%"}
{"compound": "CSCC[C@H](NC(=O)c1ccc(CN[C@@H](CO)CC2CCCCC2)cc1-c1ccccc1C)C(=O)O [Example 618]", "result value": "89%"}
{"compound": "CSCC[C@H](NC(=O)c1ccc(CN[C@H](/C=C\\CC(C)C)CC2CCCCC2)cc1-c1ccccc1C)C(=O)O [Example 526]", "result value": "96%"}
{"compound": "CSCC[C@H](NC(=O)c1ccc(COCCCCC2CCCCC2)cc1-c1ccccc1C)C(=O)O [Example 600]", "result value": "93%"}
{"compound": "CSCC[C@H](NC(=O)c1ccc(COCc2cccc(N(C)C)c2)cc1-c1ccccc1C)C(=O)O [Example 941]", "result value": "90%"}
{"compound": "COc1ccc(-c2ccc(COCc3ccc(C(=O)N[C@@H](CCSC)C(=O)[O-])c(-c4ccccc4C)c3)o2)cc1.[Li+] [Example 446]", "result value": "91%"}
{"compound": "CSCC[C@H](NC(=O)c1ccc(COCCc2ccc(-c3ccc(Cl)cc3)o2)cc1-c1ccccc1C)C(=O)[O-].[Li+] [Example 536]", "result value": "79%"}
{"compound": "CSCC[C@H](NC(=O)c1ccc(COCc2ccc(-c3ccccc3C(F)(F)F)o2)cc1-c1ccccc1C)C(=O)[O-].[Li+] [Example 438]", "result value": "90%"}
{"compound": "CSCC[C@H](NC(=O)c1ccc(COCc2ccc(-c3ccc(C(C)=O)cc3)o2)cc1-c1ccccc1C)C(=O)[O-].[Li+] [Example 449]", "result value": "91%"}
{"compound": "CSCC[C@H](NC(=O)c1ccc(COc2ccc(Oc3ccccc3)cc2)cc1-c1ccccc1C)C(=O)[O-].[Li+] [Example 795]", "result value": "87%"}
{"compound": "CCCC[C@H](CC1CCCCC1)NCc1ccc(C(=O)N[C@@H](CCSC)C(=O)O)c(-c2ccccc2C)c1 [Example 615]", "result value": "94%"}
{"compound": "CSCC[C@H](NC(=O)c1ccc(COc2ccc3ccccc3c2)cc1-c1ccccc1C)C(=O)O [Example 573]", "result value": "72%"}
{"compound": "CSCC[C@H](NC(=O)c1ccc(COCc2ccc(C)o2)cc1-c1ccccc1C)C(=O)O [Example 532]", "result value": "88%"}
{"compound": "CSCC[C@H](NC(=O)c1ccc(CNC(Cc2ccccc2)Cc2ccccc2)cc1-c1ccccc1C)C(=O)O [Example 523]", "result value": "97%"}

---

Target: protein farnesyltransferase (Rattus norvegicus, UniProt Q02293+Q04631)
Construct: The enzyme is purified according to Reiss, Y., et al., Cell, 62: 81-88 (1990), utilizing steps one through three; from tissue; host or cells: rat brain
Test: Inhibition of farnesyltransferase (scintillation proximity assay, rat brain enzyme, biotin-K Ras B fragment substrate)
Assay type: biochemical
Details: 1 × 10^-6 M (Table 2)
Measured % inhibition of farnesyltransferase at 1 × 10^-6 M values are reported for all entries that follow.
experimental readout: % inhibition of farnesyltransferase at 1 × 10^-6 M (%)

{"molecule": "CSCC[C@H](NC(=O)c1ccc(CSCc2ccc(C)cc2)cc1-c1ccccc1C)C(=O)[O-].[Li+]", "result value": 99}
{"molecule": "CNCC(=O)Nc1ccc(C(=O)N[C@@H](CCSC)C(=O)O)c(-c2ccccc2)c1", "result value": 84}
{"molecule": "CSCCC(NC(=O)c1ccc(CNC(CO)c2ccccc2)cc1-c1ccccc1)C(=O)O (stereo not shown) [Example 658]", "result value": 73}
{"molecule": "CSCC[C@H](NC(=O)c1ccc(CN[C@@H](/C=C\\CC(C)C)CC2CCCCC2)cc1-c1ccccc1)C(=O)O", "result value": 55}
{"molecule": "CSCC[C@H](NC(=O)c1ccc(CNc2ccc(CCO)cc2)cc1-c1ccccc1)C(=O)O", "result value": 45}
{"molecule": "CSCC[C@H](NC(=O)c1ccc(CS[C@H](CO)Cc2ccccc2)cc1-c1ccccc1)C(=O)O", "result value": 88}
{"molecule": "CSCC[C@H](NC(=O)c1ccc(SCCc2ccccc2)cc1-c1ccccc1C)C(=O)O", "result value": 98}
{"molecule": "CSCC[C@H](NC(=O)c1ccc(CN(Cc2ccccc2)Cc2ccccc2)cc1-c1ccccc1C)C(=O)O", "result value": 94}
{"molecule": "COc1ccccc1CCC(=O)Nc1ccc(C(=O)N[C@@H](CCSC)C(=O)O)c(-c2ccccc2C)c1", "result value": 35}
{"molecule": "CSCC[C@H](NC(=O)c1ccc(OCCOC2CCCCC2)cc1-c1ccccc1C)C(=O)[O-].[Li+]", "result value": 94}
{"molecule": "CSCC[C@H](NC(=O)c1ccc(COCc2ccc3ccccc3c2)cc1-c1ccccc1C)C(=O)[O-].[Li+]", "result value": 98}
{"molecule": "CSCC[C@H](NC(=O)c1ccc(CNCCSC(C)(C)C)cc1-c1ccccc1)C(=O)O", "result value": 85}
{"molecule": "COc1cccc(CNCc2ccc(C(=O)N[C@@H](CCSC)C(=O)O)c(-c3ccccc3)c2)c1", "result value": 41}
{"molecule": "CSCC[C@H](NC(=O)c1ccc(NC(=O)Cc2nccs2)cc1-c1ccccc1)C(=O)O", "result value": 18}
{"molecule": "CSCC[C@H](NC(=O)c1ccc(CNc2ccccc2Oc2ccccc2)cc1-c1ccccc1)C(=O)O", "result value": 37}
{"molecule": "CSCC[C@H](NC(=O)c1ccc(COCc2ccsc2)cc1-c1ccccc1C)C(=O)[O-].[Li+]", "result value": 94}
